- protocol.details: NCI Yeast Anticancer Drug Screen. Data for the mlh1 rad18 strain (AID 175)
- condition.summary: S. cerevisiae mlh1 rad18 strain growth inhibition; at 50.0 µM; active compounds read high
This is part of a sample that, as a whole, favours compounds with a hit. Of some 79,000 tested, about 15% had one in any assay. The source made the active and inactive calls. Rule as the data show it: active = growth inhibition above about 70%; inactive = the rest. Where a SMILES comes first, the peptide text is derived from it. The star is where a group is joined. Boc = CC(C)(C)OC(=O)*; NHNH2 = NN*
parameter: growth inhibition

[
  {
    "molecule": "Cc1ccc(-c2cc(=O)c3cccc(CC(=O)O)c3o2)cc1",
    "parameter": "growth inhibition",
    "result": "-1.2% (inactive)"
  },
  {
    "molecule": "CC(C)CC(=O)Cc1nc2n(c1O)C(=N)N=N2",
    "parameter": "growth inhibition",
    "result": "-20.1% (inactive)"
  },
  {
    "molecule": "Cn1c(=O)c2c(nc(NCCNc3nc4c(c(=O)n(C)c(=O)n4C)n3C)n2C)n(C)c1=O",
    "parameter": "growth inhibition",
    "result": "-31.7% (inactive)"
  },
  {
    "molecule": "CCC(C)C(NC(=O)C(Cc1c[nH]c2ccccc12)NC(=O)OC(C)(C)C)C(=O)NN (stereo not drawn) (Boc-Trp-Ile-NHNH2; configuration not given here)",
    "parameter": "growth inhibition",
    "result": "15.6% (inactive)"
  },
  {
    "molecule": "O=C1C=Cc2ccccc2/C1=C/c1nc(-c2ccc(Cl)cc2)oc1O",
    "parameter": "growth inhibition",
    "result": "-13.3% (inactive)"
  },
  {
    "molecule": "O=P(O)(O)c1ccccc1Oc1ccccc1",
    "parameter": "growth inhibition",
    "result": "6.95% (inactive)"
  },
  {
    "molecule": "BrC1C2CC/C=C\\CCC12 (stereo not drawn)",
    "parameter": "growth inhibition",
    "result": "13.9% (inactive)"
  },
  {
    "molecule": "c1ccc(-c2cc(-c3ccccc3)nc(-c3ccccc3)c2)cc1",
    "parameter": "growth inhibition",
    "result": "1.6% (inactive)"
  },
  {
    "molecule": "Cc1cc2c(C(C)C)c(O)c(O)c(C=Nc3ccc4ccccc4c3)c2c(O)c1-c1c(C)cc2c(C(C)C)c(O)c(O)c(C=Nc3ccc4ccccc4c3)c2c1O",
    "parameter": "growth inhibition",
    "result": "1.2% (inactive)"
  },
  {
    "molecule": "COc1cc(OC)c(C(=O)/C=C/c2ccccc2)c(O)c1OC",
    "parameter": "growth inhibition",
    "result": "30.6% (inactive)"
  },
  {
    "molecule": "COc1ccc2c(c1)nc1n2C(N)=Nc2ccccc2S1",
    "parameter": "growth inhibition",
    "result": "36.5% (inactive)"
  },
  {
    "molecule": "O=c1[nH]c(-c2ccc(Cl)cc2)cs1",
    "parameter": "growth inhibition",
    "result": "-16.1% (inactive)"
  },
  {
    "molecule": "O=C(O)/C=C/C(=O)Nc1cccc2c1Cc1ccccc1-2",
    "parameter": "growth inhibition",
    "result": "19.9% (inactive)"
  }
]
